B1: STEAP1 (parent)
chain: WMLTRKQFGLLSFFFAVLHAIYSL

- Variants of: B1
- method.summary: protein stability index of a GFP-peptide fusion (GPS, HEK-293T) (PSI 1-6); higher = more stable;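 further: lentivirally expressed fusions sorted by FACS into six bins by GFP to DsRed ratio, PSI derived from sequencing read proportions per bin multiplied by bin number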
- details: c terminus: a fixed tail appended
Overview of reported protein stability index across a group of variants:
Answer as a number with no unit attached.

# lookup: protein stability index of `M2R`
1.9
